Just for reference, paper PMC8187357 is where these values come from.

# experiment_notes: Pharmacokinetics in mice
# Type: in vivo, mouse
# test_context: mouse, in vivo, po, 30 mg/kg
Residues, ends and D or L forms follow the SMILES beside them.
experimental_readout: Cmax (ng/mL)
Report as a plain number; the unit ng/mL is understood.

Enquiry: For C[C@@H](O)[C@@H]1NC(=O)[C@H](CC(N)=O)NC(=O)[C@H](CO)NC(=O)[C@H](Cc2ccccc2)NC(=O)[C@H](CO)NC(=O)[C@H](CCC(=O)O)NC(=O)[C@H](CO)NC1=O [PM-823] (HELM PEPTIDE1{E.S.F.S.N.T.S}$PEPTIDE1,PEPTIDE1,1:R1-7:R2$$$V2.0) , what is its reported Cmax?
Return: 554

----------
# experiment_notes: Pharmacokinetics in mice
# Type: in vivo, mouse
# test_context: male, CD-1, mouse, plasma; preclinical PK exposure
experimental_readout: half-life (h)
Enter your answer as a number in h; do not include the unit.

Enquiry: Need half-life of C[C@@H](O)[C@H](NC(=O)N[C@@H](CC(N)=O)c1nc([C@@H](N)CO)no1)C(=O)O [CA-170] , thanks.
Return: 3.4

----------
# experiment_notes: Pharmacokinetics in mice
# Assay type: in vivo, mouse
# test_context: mouse, in vivo, iv, 1 mg/kg
Residues, ends and D or L forms follow the SMILES beside them.
experimental_readout: AUC (ng·h/mL)
Express the result in ng·h/mL but write the number alone.

Enquiry: // lookup AUC for C[C@@H](O)[C@@H]1NC(=O)[C@H](CC(N)=O)NC(=O)[C@H](CO)NC(=O)[C@H](Cc2ccccc2)NC(=O)[C@H](CO)NC(=O)[C@H](CCC(=O)O)NC(=O)[C@H](CO)NC1=O [PM-823] (HELM PEPTIDE1{E.S.F.S.N.T.S}$PEPTIDE1,PEPTIDE1,1:R1-7:R2$$$V2.0)
Return: 2180

----------
# experiment_notes: Pharmacokinetics in mice
# Type: in vivo, mouse
# test_context: mouse, in vivo, iv, 1 mg/kg
Residues, ends and D or L forms follow the SMILES beside them.
experimental_readout: clearance (mL/min/kg)
Express it in mL/min/kg; write the number only.

Enquiry: Could you tell me which clearance is on file for C[C@@H](O)[C@@H]1NC(=O)[C@H](CC(N)=O)NC(=O)[C@H](CO)NC(=O)[C@H](Cc2ccccc2)NC(=O)[C@H](CO)NC(=O)[C@H](CCC(=O)O)NC(=O)[C@H](CO)NC1=O [PM-823] (HELM PEPTIDE1{E.S.F.S.N.T.S}$PEPTIDE1,PEPTIDE1,1:R1-7:R2$$$V2.0) ?
Return: 22.9

----------
# experiment_notes: Pharmacokinetics in mice
# Type: in vivo, mouse
# test_context: male, CD-1, mouse, plasma; mice; oral 30 mg kg−1; read-out: Mice PK parameters AUC po (0-α)
# Protocol: Animals in Group 1 were administered with 5% w/v dextrose in water and Group 2 were administered with corresponding formulation listed in the Supplementary Table 6 through oral routes. Blood samples (approximately 40 μl) were collected under light isoflurane anesthesia from submandibular at predose, 0.08 (IV), 0.25, 0.5, 1, 2, 4, 8, and 24 h using sparse sampling technique. […] All samples were processed for analysis by protein precipitation and analyzed with fit-for-purpose LC–MS/MS method.
experimental_readout: AUC
Remember to follow the number with its unit.

Enquiry: Looking for the measured AUC of C[C@@H](O)[C@H](NC(=O)N[C@@H](CC(N)=O)c1nc([C@@H](N)CO)no1)C(=O)O [CA-170] , can you help?
Return: 19600 ng·h/mL

----------
# experimental_target: PD-L2 (Homo sapiens)
# Construct: purchased R&D systems 1224-PL-100
# Sequence (Q9BQ51 with tags, fused parts or gaps limits assumed): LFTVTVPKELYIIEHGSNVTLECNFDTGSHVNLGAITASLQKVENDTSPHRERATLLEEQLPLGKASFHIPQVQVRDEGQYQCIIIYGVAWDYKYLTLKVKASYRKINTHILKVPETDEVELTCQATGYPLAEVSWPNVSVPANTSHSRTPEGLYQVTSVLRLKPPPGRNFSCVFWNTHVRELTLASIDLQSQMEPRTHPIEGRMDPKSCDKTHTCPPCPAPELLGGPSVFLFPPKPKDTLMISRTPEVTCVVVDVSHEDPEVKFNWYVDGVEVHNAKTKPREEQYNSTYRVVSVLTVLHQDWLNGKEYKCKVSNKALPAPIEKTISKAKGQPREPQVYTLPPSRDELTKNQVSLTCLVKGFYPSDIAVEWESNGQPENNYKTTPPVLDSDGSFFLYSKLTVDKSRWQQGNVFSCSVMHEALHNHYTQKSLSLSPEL
# experiment_notes: Rescue of IFN-γ release inhibited by PD-L2, human PBMC
# Format: cell-based
# test_context: mean ± S.D.; n=3
experimental_readout: pEC50
// scale note: pEC50 = -log10(conc_M); give the bare number

Enquiry: Recorded pEC50 for C[C@@H](O)[C@H](NC(=O)N[C@@H](CC(N)=O)c1nc([C@@H](N)CO)no1)C(=O)O [CA-170] , please?
Return: 7.09

----------
# experiment_notes: Plasma stability, human
experimental_readout: remaining at 4 h, 10 μM

Enquiry: Item under review: C[C@@H](O)[C@H](NC(=O)N[C@@H](CC(N)=O)c1nc([C@@H](N)CO)no1)C(=O)O [CA-170] . Reported remaining at 4 h, 10 μM?
Return: > 95%

----------
# experiment_notes: Pharmacokinetics in mice
# Type: in vivo, mouse
# test_context: mouse, in vivo, po
# Description: Animals in Group 1 were administered with 5% w/v dextrose in water and Group 2 were administered with corresponding formulation listed in the Supplementary Table 6 through oral routes. Blood samples (approximately 40 μl) were collected under light isoflurane anesthesia from submandibular at predose, 0.08 (IV), 0.25, 0.5, 1, 2, 4, 8, and 24 h using sparse sampling technique. […] All samples were processed for analysis by protein precipitation and analyzed with fit-for-purpose LC–MS/MS method.
Residues, ends and D or L forms follow the SMILES beside them.
experimental_readout: bioavailability (%)
Report as a plain number; the unit % is understood.

Enquiry: Endpoint output: bioavailability of C[C@@H](O)[C@@H]1NC(=O)[C@H](CC(N)=O)NC(=O)[C@H](CO)NC(=O)[C@H](Cc2ccccc2)NC(=O)[C@H](CO)NC(=O)[C@H](CCC(=O)O)NC(=O)[C@H](CO)NC1=O [PM-823] (HELM PEPTIDE1{E.S.F.S.N.T.S}$PEPTIDE1,PEPTIDE1,1:R1-7:R2$$$V2.0) . Value?
Return: 6.8

----------
# experimental_target: PD-L1 (Mus musculus)
# Construct: purchased R&D Systems 1019-B7-100
# Sequence (Q9EP73 with tags, fused parts or gaps limits assumed): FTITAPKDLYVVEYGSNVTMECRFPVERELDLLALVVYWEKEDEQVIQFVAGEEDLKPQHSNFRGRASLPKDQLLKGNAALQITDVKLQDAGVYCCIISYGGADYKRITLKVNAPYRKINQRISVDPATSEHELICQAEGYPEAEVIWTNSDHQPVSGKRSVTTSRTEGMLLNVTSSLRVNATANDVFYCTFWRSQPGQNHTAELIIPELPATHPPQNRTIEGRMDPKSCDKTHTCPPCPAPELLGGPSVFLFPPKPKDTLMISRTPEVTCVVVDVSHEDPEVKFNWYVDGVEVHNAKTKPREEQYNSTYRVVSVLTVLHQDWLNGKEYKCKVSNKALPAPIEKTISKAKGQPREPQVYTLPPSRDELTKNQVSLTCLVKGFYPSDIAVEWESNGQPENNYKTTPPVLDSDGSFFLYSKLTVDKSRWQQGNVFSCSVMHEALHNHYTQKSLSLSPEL
# experiment_notes: Rescue of IFN-γ release inhibited by PD-L1, mouse splenocytes
# Format: cell-based
# test_context: mean ± S.D.; n=2; read-out: Mouse Splenocyte IFN-γ Rescue EC50 PD-L1
experimental_readout: pEC50
Units for pEC50: none; it is -log10 of a concentration expressed in mol/L.

Enquiry: Record request: pEC50 value, item C[C@@H](O)[C@H](NC(=O)N[C@@H](CC(N)=O)c1nc([C@@H](N)CO)no1)C(=O)O
Return: 7.46

----------
# experiment_notes: Pharmacokinetics in mice
# Format: in vivo, mouse
# test_context: male, CD-1, mouse, plasma; mice; iv 1 mg kg−1, oral 30 mg kg−1; read-out: Mice PK parameters % F
experimental_readout: bioavailability (%)
// note: answer is a bare numeric in %

Enquiry: Look at this molecule and give its reported bioavailability. C[C@@H](O)[C@H](NC(=O)N[C@@H](CC(N)=O)c1nc([C@@H](N)CO)no1)C(=O)O
Return: 50
